# growth values compiled below
Tested on: EKVX NSCLC
Experiment: NCI-60 one-dose screen, 48 h (100 = growth as untreated, 0 = no growth, -100 = all killed)
Conditions: 10 µM unless noted
Method: Growth inhibition of the EKVX human Non-Small Cell Lung tumor cell line is measured as a screen for anti-cancer activity. Cells are grown in 96 well plates and exposed to the test compound for 48 hours. Compounds are tested at a single concentration, which is 10^-5 M for most compounds. The reported endpoint is percent growth (GI% or GIPRCNT), where numbers from 0 - 100% represent growth inhibition, and numbers from -100% - 0 represent cell death. […]
The panel holds about 83,000 compounds, 20% with a hit somewhere; the sample as a whole holds those more often. The source made the active and inactive calls. How the source made its calls: active means growth percent below 10; inactive means the rest.
measured.property: growth

1) Cc1c(N)nc([C@H](CC(N)=O)NC[C@H](N)C(N)=O)nc1C(=O)N[C@H](C(=O)N[C@H](C)[C@@H](O)[C@H](C)C(=O)N[C@H](C(=O)NCCc1nc(-c2nc(C(=O)NCCC[S+](C)C)cs2)cs1)[C@@H](C)O)C(OC1OC(CO)C(O)C(O)C1OC1OC(CO)C(O)C(OC(N)=O)C1O)c1cnc[nH]1 (some centres undefined); 103% [2.5 µM] (inactive)
2) CC[C@@]1(O)C[C@H](OC2CC(N(C)C)C(OC3CC(O)C(OC4CCC(=O)C(C)O4)C(C)O3)C(C)O2)c2c(cc3c(c2O)C(=O)c2c(O)ccc(O)c2C3=O)[C@H]1C(=O)OC (some centres undefined); 17.6% (inactive)
3) Cc1cc(N=Nc2ccccc2C)ccc1N; 71.9% (inactive)
4) COC1CC(CC2CCC(C)C(C(C)C(=O)O)O2)OC2(OC(C)(C3CCC(C)(C4OC(C5OC(O)(CO)C(C)CC5C)CC4C)O3)CC2C)C1C (centres undefined); 19.1% (inactive)
